- System: arteria saphena rings
- assayExplanation: Vasorelaxant effect in vitro (phenylephrine-contracted arteria saphena rings)
- Assay type: cell-based, Rabbits
- conditionSummary: Oryctolagus cuniculus; rabbit arteria saphena rings, contractions generated by phenylephrine, 0.1% DMSO; read-out: IC50, concentration necessary to reduce the height of the contraction of the control value by 50%
Counter-ions that a name gives are not always drawn.
quantityKind: IC50 (nM)

Could you share which IC50 value was measured for `O=C(O)CCCCN(CCc1cc(F)ccc1COc1ccc(-c2ccc(C(F)(F)F)cc2)cc1)Cc1ccc(C(=O)O)cc1` ?
0.26

A. O=C(O)CCCCN(CCc1cc(F)ccc1COc1ccc(C2CCCCC2)cc1)Cc1ccc(C(=O)O)cc1
B. O=C(O)CCCCN(Cc1ccc(C(=O)O)cc1)Cc1cccc(Oc2ccc(C3CCCCC3)cc2)c1 [Example 3, hydrochloride]
C. O=C(O)CCCCN(Cc1ccc(C(=O)O)cc1)Cc1cccc(Oc2ccc(-c3ccc(C(F)(F)F)cc3)cc2)c1
D. O=C(O)CCCCN(CCc1ccccc1OC(F)(F)c1ccc(-c2ccc(C(F)(F)F)cc2)cc1)Cc1ccc(C(=O)O)cc1
Sequence the entries by IC50, beginning with the highest number. Submit the labels in the order that the ranking request calls for.
C, B, A, D
